Test system: Tov-21-G
experimental.protocol: Primary qHTS to identify gynecologic anti-cancer compounds using libraries of approved drugs and bioactive compounds (AID 1345084); note: nearly all actives have a fitted effect of over 55% in size; note: potency is the fitted concentration of half-maximal effect
measurement.setup: Gynecologic cancer cell panel viability, ATPlite luminescence, 48 h; series mostly up to 57.5 µM
Text: National Center for Advancing Translational Sciences [NCATS] Assay Overview: Chemotherapeutic drug responses vary from cancer to cancer and from patient to patient. […] ATPlite is a luminescence based assay reliant on the conversion of a luciferase substrate to light in the presence of ATP. As a cytotoxic compound will suppress growth and decrease the number of cells, the concentration of ATP will decrease, and less light signal will be detected in the well. […]
Inconclusive results are not listed. The source made the active and inactive calls. Calls come from the whole dose curve; as a rule, active = well fitted cell-killing curve with a large enough effect; inconclusive = small, poorly fitted or top-dose-only effect, or effect the other way; inactive = flat fitted curve, though single readings scatter.
readout: Potency

>>> df
                                   compound  readout           result
0  COc1ccccc1Oc1ccc(N(Cc2cccnc2)S(=O)(=O)CC(F)(F)F)cc1  Potency         inactive
1  CC(C)(O)CC(CO)NC(=O)CC(O)CC(=O)Cc1ccccc1 (centres undefined)  Potency         inactive
2   O=C(O)c1cccc(S(=O)(=O)N2CCc3ccccc3C2)c1  Potency         inactive
3  Cc1cc(N2CCN([C@@H]3CN[C@H](C(=O)N4CCSC4)C3)CC2)n(-c2ccccc2)n1  Potency         inactive
4  CC/C=C\CCO[C@@H]1O[C@H](CO)[C@@H](O)[C@H](O)[C@H]1O  Potency         inactive
5  C=C(C)C1CC[C@]2(C(=O)O)CC[C@]3(C(=O)O)[C@H](CCC4[C@@]5(C)CC[C@H](O)C(C)(C)C5CC[C@]43C)C12 (some centres undefined)  Potency         inactive
6  Nc1nc2c(c(=O)[nH]1)C[C@@H](CCc1ccc(C(=O)N[C@@H](CCC(=O)O)C(=O)O)cc1)CN2  Potency  0.1 µM (active)
7  COc1cc2c(NC3CCN(CC4CCCCC4)CC3)nc(N3CCCN(C(C)C)CC3)nc2cc1OCCCN1CCCCC1  Potency   20 µM (active)

Continue with the next compound.
# lookup: Potency of Cc1cc2c(c(=O)[nH]1)OC(C(O)CC(C)C)O2 (centres undefined)
inactive

###

Tested on: SKOV3
experimental.protocol: Primary qHTS to identify gynecologic anti-cancer compounds using libraries of approved drugs and bioactive compounds (AID 1345084); note: nearly all actives have a fitted effect of over 55% in size
measurement.setup: Gynecologic cancer cell panel viability, ATPlite luminescence, 48 h; series mostly up to 57.5 µM
Records with an inconclusive call do not appear. Active and inactive are the calls of the source. Calls come from the whole dose curve; as a rule, active = well fitted cell-killing curve with a large enough effect; inconclusive = small, poorly fitted or top-dose-only effect, or effect the other way; inactive = flat fitted curve, though single readings scatter. Where a SMILES comes first, the peptide text is derived from it. Bridges are numbered along the chain shown (N, C = ends). [ ]: non-standard residue; d: D form. NMeY = CN[CH](Cc1ccc(O)cc1)C(=O)O
Return exactly one item of active, inactive

Kindly provide the recorded test outcome for the following molecule: CC1CCC2(CO)C(C(=O)O)=CCCC2C1(C)CCc1ccoc1 (stereo unspecified)
inactive

Kindly provide the recorded test outcome for the following molecule: CC(C)C1=CC2C(CC[C@]2(C)O)[C@](C)(O)CC1 (stereo partly specified)
inactive

Kindly provide the recorded test outcome for the following molecule: C[C@@H]1C(=O)O[C@H]2C[C@]34[C@H]5C[C@@H](C(C)(C)C)[C@]36[C@@H](OC(=O)[C@H]6O)O[C@]4(C(=O)O5)[C@]21O
inactive

Kindly provide the recorded test outcome for the following molecule: C=C1C(=O)OC2CC(C)=C(C(C)CCCO)C(O)C12 (stereo unspecified)
inactive

Kindly provide the recorded test outcome for the following molecule: COc1ccc2nc(S(=O)(=O)Cc3ncc(C)c(OC)c3C)[nH]c2c1
inactive

Kindly provide the recorded test outcome for the following molecule: O=C(O)c1cc2cccc([N+](=O)[O-])c2[nH]1
inactive

Kindly provide the recorded test outcome for the following molecule: CC(=O)NC1C(OC(C)(C)C2CCC3(C)C=C(C4CCC5C4(C)CC(O)C4OC(C(C)(C)O)CCC45C)CCC3O2)OC(CO)C(O)C1O (stereo unspecified)
inactive

Kindly provide the recorded test outcome for the following molecule: C=C[C@H]1[C@H](O[C@@H]2O[C@H](CO)[C@@H](O)[C@H](O)[C@H]2O)OC=C(C(=O)OC)[C@H]1C/C=C(/C=O)[C@@H]1C(C(=O)OC)=CO[C@@H](O[C@@H]2O[C@H](CO)[C@@H](O)[C@H](O)[C@H]2O)[C@@H]1C=C
inactive

Kindly provide the recorded test outcome for the following molecule: CC(C)(C)c1ccc(S(=O)(=O)Nc2ccc(Cl)cc2C(=O)c2cc[n+]([O-])cc2)cc1
inactive

Kindly provide the recorded test outcome for the following molecule: O=C1NC(Cc2c[nH]c3ccccc23)C(=O)NC1Cc1c[nH]c2ccccc12 (stereo unspecified)
inactive

Kindly provide the recorded test outcome for the following molecule: CCC(C)C1NC(=O)C2CCCN2C(=O)C(NC(C)=O)C(C)OC(=O)C(Cc2ccc(OC)cc2)N(C)C(=O)C2CCCN2C(=O)C(C(C)C)NC1=O (stereo unspecified) (Ac-TPIVP[NMeY](Me); ester 1-C; configuration not given here)
inactive

Kindly provide the recorded test outcome for the following molecule: CCOc1cc(C)c(Cl)cc1S(=O)(=O)n1cnc2ccccc21
inactive

Kindly provide the recorded test outcome for the following molecule: CC(=O)OC[C@H]1O[C@H](O[C@]2(CO)O[C@H](CO)[C@@H](OC(=O)/C=C/c3ccccc3)[C@@H]2O)[C@H](O)[C@@H](O)[C@@H]1O
inactive

Kindly provide the recorded test outcome for the following molecule: CNC(=O)c1cccc(-c2ccc3c(N4CCOC[C@@H]4C)nc(N4CCOC[C@@H]4C)nc3n2)c1
active

Kindly provide the recorded test outcome for the following molecule: CC(C)S(=O)(=O)N[C@H]1CCOC[C@@H]1c1ccc(-c2ccc(C#N)s2)cc1
inactive

Kindly provide the recorded test outcome for the following molecule: CCOc1cc(C(=O)N2CCC(N3CCN(C)CC3)CC2)ccc1Nc1ncc2c(n1)N(C1CCCC1)c1ccccc1C(=O)N2C
active

###

experimental.protocol: Primary qHTS for inhibitors of nuclear receptor binding SET domain protein 2 (NSD2) in an isogenic RCH-ACV NSD2 p.E1099K mutant (9B) (AID 1645876); note: nearly all actives have a fitted effect of over 70% in size
measurement.setup: RCH-ACV (leukaemia line) NSD2 E1099K (9B) viability, CellTiter-Glo, 72 h; series mostly up to 44.9 µM
Results filed as inconclusive are left out. Calls of active or inactive are those of the source. The call rests on the fitted dose curve; in most records, active means well fitted inhibition curve with a large enough effect; inconclusive means small, poorly fitted or top-dose-only effect; inactive means flat fitted curve, though single readings scatter.
Return exactly one item of yes (active), no (inactive)

Kindly provide the recorded test outcome for the following compound: C=C(C(=O)O)C1CC2=C(C)CCCC2(C)C[C@@H]1O (some centres undefined)
no

Kindly provide the recorded test outcome for the following compound: CC(=O)C=C=C1C(C)(C)CC(O[C@@H]2O[C@H](CO)[C@@H](O)[C@H](O)[C@H]2O)CC1(C)O (some centres undefined)
no

Kindly provide the recorded test outcome for the following compound: CN1CCC(Nc2nc(Nc3ccc(Oc4ccccc4)cc3)c3c(=O)[nH]cc(Br)c3n2)CC1
yes

Kindly provide the recorded test outcome for the following compound: C=C(C)C(=O)O[C@H]1C[C@@](C)(O)C(=O)CC(O)/C(C)=C\[C@H]2OC(=O)C(=C)[C@H]12 (some centres undefined)
yes

Kindly provide the recorded test outcome for the following compound: CCc1c(C)nc2c(-c3cnn(-c4cc(CO)ccn4)c3)c[nH]n2c1=O
no

Kindly provide the recorded test outcome for the following compound: CC[C@@H](O)C[C@@H]1C(C)=C[C@@H]2CCCC[C@@H]2[C@@]1(C)C(=O)O
no

Kindly provide the recorded test outcome for the following compound: Cc1nc2sc(C(=O)NCc3ccncc3)c(N)c2c(C)c1Cl
no

Kindly provide the recorded test outcome for the following compound: Cc1cccc(/C=N/Nc2cc(N3CCOCC3)n3nc(-c4ccncc4)cc3n2)c1
yes

Kindly provide the recorded test outcome for the following compound: Cc1cnc(Nc2ccc(F)cc2Cl)nc1-c1c[nH]c(C(=O)NC(CO)c2cccc(Cl)c2)c1 (centres undefined)
yes

###

study.system: Cytochrome P450 2D6 (Homo sapiens)
experimental.protocol: Cytochrome P450 family 2 subfamily D member 6 (CYP2D6) small molecule antagonists: luciferase biochemical (cell-free) qHTS assay (AID 1645840); note: nearly all actives have a fitted effect of over 55% in size
measurement.setup: P450-Glo CYP2D6 enzyme, luciferin luminescence, 1 h; series mostly up to 57.4 µM
Results filed as inconclusive are left out. Calls of active or inactive are those of the source. The call rests on the fitted dose curve; in most records, active means well fitted inhibition curve with a large enough effect in the repeat runs; inconclusive means weak or mixed curves; inactive means flat fitted curve, though single readings scatter.
Return exactly one item of t = active, f = inactive

Kindly provide the recorded test outcome for the following compound: COc1cc2c(cc1OC)-c1[nH]nc(Nc3cccc(F)c3)c1C2
t

Kindly provide the recorded test outcome for the following compound: CC(C)(C(=O)NCC(F)(F)C(F)(F)F)C(=O)NC1C(=O)Nc2ccccc2-c2ccccc21 (centres undefined)
t

Kindly provide the recorded test outcome for the following compound: NC(=O)C(CCC(F)(F)F)N(Cc1ccc(-c2ncon2)cc1F)S(=O)(=O)c1ccc(Cl)cc1 (centres undefined)
t

Kindly provide the recorded test outcome for the following compound: NC(=O)c1cccc2cn(-c3ccc(C4CCCNC4)cc3)nc12 (centres undefined)
f

Kindly provide the recorded test outcome for the following compound: COc1cc(C(=O)NC2CCN(C)CC2)c(F)cc1Nc1ncc2c(n1)N(C1CCCC1)CC(F)(F)C(=O)N2C
f

Kindly provide the recorded test outcome for the following compound: CCOC(=O)CCN(C(=O)c1ccc2c(c1)nc(CNc1ccc(C(=N)N)cc1)n2C)c1ccccn1
f

Kindly provide the recorded test outcome for the following compound: CCN(Cc1cccnc1)C(=O)CN(c1ccc(OC)nc1)S(=O)(=O)c1ccccc1C
f

Kindly provide the recorded test outcome for the following compound: Cc1cc(C(=O)N2Cc3cnn(C)c3Nc3ccccc32)ccc1CNC(=O)N1CCC[C@H]1C(=S)N1CCCN(C)CC1
f

Kindly provide the recorded test outcome for the following compound: C[C@@H]1COCCN1c1cc(C2(S(C)(=O)=O)CC2)nc(-c2cccc3[nH]ccc23)n1
f

The values you see were collected from PubChem BioAssay (NCATS).
